- test_system: T1, human PD-L1 ECD-His (human, UniProt Q9NZQ7 19-238)
- T1 construct: extracellular domain; Analyte in all SPR and BLI runs; also called hPD-L1_ECD-His; hPD-L1 ECD-His; not shown: His tag
- T1 sequence (Q9NZQ7 19-238): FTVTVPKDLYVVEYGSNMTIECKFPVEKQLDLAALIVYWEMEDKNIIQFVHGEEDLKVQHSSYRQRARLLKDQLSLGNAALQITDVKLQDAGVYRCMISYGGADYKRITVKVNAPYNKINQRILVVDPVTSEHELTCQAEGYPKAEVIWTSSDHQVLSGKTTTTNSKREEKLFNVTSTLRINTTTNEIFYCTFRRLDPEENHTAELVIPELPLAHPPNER
- assay_method_text: SPR, 25 C, antibody captured by anti-human IgG Fc, hPD-L1-His analyte, 1:1 fit
attribute_measured: koff
Enter the number, and then the unit.

Query :: Consider the binder shown here: PL2#39 IgG2 (antibody, V domains shown, Human IgG2 backbone) VH: EVQLVQSGGGLVKPGGSLRLSCAASGFTFSSYTMNWVRQAPGKGLEWVSSISSGSDYLYYADSVKGRFTISRDNAKNSLYLQMNSLRAEDTAVYYCARNELRWYPKAGAFDIWGQGTMVTVSS VL: QSVVTQPPSMSAAPGQRVTISCSGSSSYITSSYVSWYQQLPGTAPRLLIYDDDMRPSGIPDRFSGSKSGTSATLAITGLQTGDEADYYCKIWDSGLGGVFGGGTKLTVL What is its recorded koff?
Result :: 0.00143 s⁻¹

All figures here come from patent US20190225691A1.
